# experimental target: acetylcholine receptor protein
# assay: SPR, concentration series (FIG. 9); given as 'affinity'
observed property: Kd (nM)
Please reply with the bare figure in nM and do not write the unit itself.

Ask: Looking for the measured Kd of RKRIRR [6mer-1-43] , can you help?
Reply: 609

Where do these numbers come from? They come from patent US20250011363A1.
